Each item that follows carries a reported GI50.
# Test system: SNB-19 CNS
# experiment_notes: NCI tumour cell line growth inhibition, 48 h

Task: Requested read-out: GI50. Entry: COc1ccccc1OCC(O)CO (stereo unspecified)
Result: > 100 µM

* * *

# Tested on: T-47D breast
# experiment_notes: NCI tumour cell line growth inhibition, 48 h
Each item that follows carries a reported TGI.
# output: bare number, implied unit µM

Solved cases (2 shown):
INSERT INTO assay_data (structure_as_smiles, target_entity, units_label, value_measured) VALUES
  ('CCNC1=CC(=O)c2ncccc2C1=O', 'T-47D breast', 'µM', 23.1),
  ('COc1cc(C(=O)c2c(-c3ccccc3)oc3ccccc23)cc(OC)c1O', 'T-47D breast', 'µM', 31.8);

Pending compound:
Task: Requested read-out: TGI. Entry: "COc1cc(C=NCC(=O)CSC(c2ccccc2)c2ccccc2)cc(OC)c1OC"
Result: 53.7

* * *

# Tested on: K-562 leukemia
# experiment_notes: NCI tumour cell line growth inhibition, 48 h
Each item that follows carries a reported GI50.

INSERT INTO measurements (compound, value_kind, value_measured) VALUES
  ('CN(C)c1ccc(/C=N/Nc2ccc(-c3nc4ccccc4[nH]3)cc2)cc1', 'GI50', '2860 nM');

Task: Requested read-out: GI50. Entry: "CCOc1ccc(N2C(N)=NC(N)=NC2(C)C)cc1"
Result: 36000 nM

Task: Can you handle O.O=[Se](=O)(O)O.[NH-]C1CCCCC1[NH-].[Pt+2] (stereo unspecified) next?
Result: 5350 nM

Task: Can you handle "NC(=O)c1ccc(NC(=O)c2oc3ccccc3c2-c2cnn(-c3ccccc3)c2)cc1" next?
Result: > 100000 nM

Task: Can you handle "O=C(N/N=C\c1cc(Cl)ccc1O)N/N=C/c1cc(Cl)ccc1O" next?
Result: 572 nM

Task: Can you handle "CCNC1=CC(=O)c2ncccc2C1=O" next?
Result: 2840 nM

* * *

# Tested on: K-562 leukemia
# experiment_notes: NCI tumour cell line growth inhibition, 48 h
Each item that follows carries a reported GI50.

Task: Requested read-out: GI50. Entry: "ClCc1ccc(Cn2cnc3ncnc(Cl)c32)cc1"
Result: 3.03 µM

Task: Can you handle COc1cc(SC)ccc1C(=O)N1CCCC(C)C1 (stereo not drawn) next?
Result: 58.7 µM

Task: Can you handle CCn1cc(C2NC(=O)c3cc(F)ccc3N2)c2cccc(Cl)c21 (stereo not drawn) next?
Result: 0.0414 µM

Task: Can you handle COc1ccccc1OCC(O)CO (stereo not drawn) next?
Result: > 100 µM

Task: Can you handle "CCn1c(-c2cc3ccccc3cc2OC(=O)c2ccccc2)n[nH]c1=S" next?
Result: 22.5 µM

Task: Can you handle "CC1=CC(=O)c2[nH]c3ccccc3c2C1=O" next?
Result: 5.56 µM

Task: Can you handle "Cc1cc(I)cc(CN(C)CCCCN2CCCC2)c1O" next?
Result: 11.3 µM

Task: Can you handle "O=C(O)CCN1C(=O)/C(=C/C(Cl)=C/c2ccccc2)SC1=S" next?
Result: 1.88 µM

* * *

Each item that follows carries a reported GI50.
# Test system: 786-0 renal
# experiment_notes: NCI tumour cell line growth inhibition, 48 h

Solved cases (3 shown):
INSERT INTO results (compound, target_entity, value_measured) VALUES
  ('NC(=O)c1ccc(-c2c3ccccc3cc3c2ccc2ccccc23)cc1', '786-0 renal', '3.64 µM'),
  ('O=C(N/N=C\c1cc(Cl)ccc1O)N/N=C/c1cc(Cl)ccc1O', '786-0 renal', '> 100 µM'),
  ('Cn1cc(/C=C2\C(=O)Nc3cccnc32)c2ccccc21', '786-0 renal', '> 25 µM');

Task: Requested read-out: GI50. Entry: "CCOc1ccc(N2C(N)=NC(N)=NC2(C)C)cc1"
Result: 44.9 µM

Task: Can you handle "Cc1ccc(Nc2ccnc(Nc3cccc(C(N)=O)c3)n2)cc1O" next?
Result: 8.09 µM

Task: Can you handle "Fc1cc(Nc2ccc3c(OCCCN4CCOCC4)cccc3n2)ccc1Cl" next?
Result: 1.79 µM

Task: Can you handle "CC(C)=CCC[C@](C)(O)[C@H]1CC[C@]2(C)[C@@H]1CC[C@@H]1[C@@]3(C)CC[C@H](OC(=O)CCC(=O)O)C(C)(C)[C@@H]3CC[C@]12C" next?
Result: > 100 µM

Task: Can you handle CC(Cl)CC(=O)Nc1ccc2c(c1)oc(=O)c1cc(NC(=O)CC(C)Cl)ccc12 (centres undefined) next?
Result: 16.9 µM

Task: Can you handle CCn1cc(C2NC(=O)c3cc(F)ccc3N2)c2cccc(Cl)c21 (centres undefined) next?
Result: 0.618 µM

* * *

# Tested on: CCRF-CEM leukemia
# experiment_notes: NCI tumour cell line growth inhibition, 48 h; in the data active = GI50 below about 0.43 µM; inactive = the rest
// classify into yes (1) (active), no (0) (inactive)

Example cases with answers are listed next.
INSERT INTO assay_data (compound, assigned_label) VALUES
  ('N#CC(C#N)=C/C=C/c1cccc([N+](=O)[O-])c1', 'no (0)'),
  ('Nc1ccccc1C#Cc1ccccc1C#CCCCCO', 'no (0)'),
  ('Cc1cc(C#Cc2ccccc2)ccc1-n1c(/C=C/c2ccc(O)cc2)nc2ccccc2c1=O', 'no (0)'),
  ('O=C(O)CCN1C(=O)/C(=C/C(Cl)=C/c2ccccc2)SC1=S', 'no (0)'),
  ('C[C@H]1CC(=O)[C@@]2(O)C#C/C=C\C#C[C@@H]3Nc4c(cc(O)c5c4C(=O)c4ccccc4C5=O)[C@]24O[C@]314', 'yes (1)');

Consider the additional compound presented here.
Task: Recorded test outcome, item "COc1cc([N+](=O)[O-])c2ncccc2c1O"
Result: no (0)

* * *

# Tested on: T-47D breast
# experiment_notes: NCI tumour cell line growth inhibition, 48 h
value_kind: TGI (µM)
# output: bare number, implied unit µM

Task: Requested read-out: TGI. Entry: "CN(C)c1ccc(/C=N/Nc2ccc(-c3nc4ccccc4[nH]3)cc2)cc1"
Result: 40.9

Task: Can you handle CCCCCCCCCC[C@@H](O)[C@H]1CC[C@@H]([C@H]2CC[C@H]([C@H](O)CCCCCCCCCC[C@@H]3CC(CC(C)=O)C(=O)O3)O2)O1 (stereo partly specified) next?
Result: 69.4

Task: Can you handle CCCCCCCCCCCOCCC1C(C(C)OCCN2CCCC2)OC2OC(C)(C)OC21 (stereo unspecified) next?
Result: 4.8

Task: Can you handle "C=CC(=O)N1C/C(=C\c2ccc(F)cc2)C(=O)/C(=C/c2ccc(F)cc2)C1" next?
Result: 39.7

Task: Can you handle "COCCOCCOCCOCCOc1ccc2c(c1)C(=O)c1nc3ncccc3c(=O)n1-2" next?
Result: 9.04

* * *

# Tested on: NCI-H460 lung
# experiment_notes: NCI tumour cell line growth inhibition, 48 h
Each item that follows carries a reported TGI.

INSERT INTO results (molecule, value_measured) VALUES
  ('CCCNC(=O)Cn1c(-c2ccccc2)cc2ccccc21', '> 100 µM'),
  ('COc1cc(/C=C/C=C2\CC(C)C/C(=C\C=C\c3ccc(O)c(OC)c3)C2=O)ccc1O (stereo not given)', '92.3 µM'),
  ('Cn1cc(/C=C2\C(=O)Nc3cccnc32)c2ccccc21', '> 25 µM');

Task: Requested read-out: TGI. Entry: Fc1ccccc1C1SCC2=Nc3ccccc3CN21 (stereo not given)
Result: > 100 µM

* * *

Each item that follows carries a reported GI50.
# Test system: LOX IMVI melanoma
# experiment_notes: NCI tumour cell line growth inhibition, 48 h

Task: # get_value(readout= GI50, system= LOX IMVI melanoma) for O.O=[Se](=O)(O)O.[NH-]C1CCCCC1[NH-].[Pt+2] (centres undefined)
Result: 8210 nM

Task: Can you handle "O=C(O)CCN1C(=O)/C(=C/C(Cl)=C/c2ccccc2)SC1=S" next?
Result: 1500 nM

Task: Can you handle "O=C(N/N=C\c1cc(Cl)ccc1O)N/N=C/c1cc(Cl)ccc1O" next?
Result: 2140 nM

Task: Can you handle "C[C@@H]1CC[C@H]2C(CN3CCN(CC4=C(C(F)(F)F)O[C@@H]5O[C@@]6(C)CC[C@H]7[C@H](C)CC[C@@H]4[C@@]57OO6)CC3)=C(C(F)(F)F)O[C@@H]3O[C@@]4(C)CC[C@@H]1[C@]32OO4" next?
Result: 2300 nM

* * *

# Tested on: MDA-MB-231 breast
# experiment_notes: NCI tumour cell line growth inhibition, 48 h
So basically: TGI at 40 µM or higher? That is t. Lower than 40 µM? That is f.

INSERT INTO results (molecule, assigned_label) VALUES
  ('O/N=C1/CCCCC1NO (stereo not given)', 't');

Task: Hi, just wondering whether COc1ccc(N2C(=O)CSC2c2cc(OC)c(OC)c(OC)c2)cc1 (stereo not given) shows TGI of 40 µM or higher.
Result: t

Task: Can you handle "Cn1c(=O)c2[nH]cnc2n(C)c1=O" next?
Result: t

Task: Can you handle "O=C1CCC(c2ccccc2)(c2ccccc2)CC1" next?
Result: t

Task: Can you handle "O=C(Nc1ccc(-c2nc3ccc(NC(=O)c4ccc(Cl)cc4)cc3[nH]2)cc1)c1ccc(Cl)cc1" next?
Result: f

Task: Can you handle CCOC(=O)C1C2C1C1C(C(=O)OCC)C21 (stereo not given) next?
Result: t

Task: Can you handle "CC(C)(C)OC(=O)N[C@@H](Cc1ccccc1)C(=O)N1CC[C@@H](C(=O)N2[C@H]3CC4CC[C@@]3(CS2(=O)=O)C4(C)C)N1" next?
Result: t
